- Assay Explanation: Thermo Scientific Hypersil GOLD aQ, 100 × 2.1 mm, 1.9 µm, 30 °C, 0.3 mL/min, estimated dead time 0.73 min; A: water + 0.01% formic acid + 4 mM ammonium formate; B: methanol + 0.01% formic acid + 4 mM ammonium formate; gradient (min/%B) 0/5 1/5 8/100 12/100
- Test Conditions: stereoisomer not certain
Below is a list of entries, each paired with its recorded LC retention time value.
Endpoint Name: LC retention time (min)

>  <Compound>
CCOP(=O)(NC(C)C)Oc1ccc(S(C)(=O)=O)c(C)c1 (stereo not given)

>  <Result Number>
8.51

$$$$
>  <Compound>
CNC(=O)ON=C(C)SC

>  <Result Number>
6.05

$$$$
>  <Compound>
CCc1ccc(C(=O)NN(C(=O)c2cc(C)cc(C)c2)C(C)(C)C)cc1

>  <Result Number>
9.99

$$$$
>  <Compound>
CON=C(C(=O)OC)c1ccccc1COc1ccccc1C

>  <Result Number>
10.1

$$$$
>  <Compound>
CCC(C)C1OC2(C=CC1C)CC1CC(CC=C(C)C(OC3CC(OC)C(OC4CC(OC)C(NC)C(C)O4)C(C)O3)C(C)C=CC=C3COC4C(O)C(C)=CC(C(=O)O1)C34O)O2 (stereo not given)

>  <Result Number>
11.9

$$$$

###

Below is a list of entries, each paired with its recorded LC retention time value.
- Assay Explanation: Thermo Scientific Hypersil GOLD aQ, 100 × 2.1 mm, 1.9 µm, 30 °C, 0.3 mL/min, estimated dead time 0.73 min; A: water + 0.01% formic acid + 4 mM ammonium formate; B: methanol + 0.01% formic acid + 4 mM ammonium formate; gradient (min/%B) 0/5 1/5 8/100 12/100
- Test Conditions: stereoisomer not certain

>  <Compound>
CSc1nc(NC(C)C)nc(NC(C)C)n1

>  <LC retention time / min>
9.65

$$$$
>  <Compound>
CCNc1nc(NC(C)(C)C)nc(SC)n1

>  <LC retention time / min>
9.65

$$$$
>  <Compound>
CCNc1nc(NC(C)C)nc(SC)n1

>  <LC retention time / min>
9.18

$$$$
>  <Compound>
CNC(=O)ON=C(CSC)C(C)(C)C

>  <LC retention time / min>
8.21

$$$$
>  <Compound>
Cc1cc(C)c(C2=C(OC(=O)CC(C)(C)C)C3(CCCC3)OC2=O)c(C)c1

>  <LC retention time / min>
10.9

$$$$
>  <Compound>
COC(=O)C(C)N(C(=O)Cc1ccccc1)c1c(C)cccc1C (stereo not drawn)

>  <LC retention time / min>
10.2

$$$$
>  <Compound>
COP(=O)(OC)OC(C)=CC(=O)N(C)C

>  <LC retention time / min>
6.63

$$$$
>  <Compound>
CCNC(=O)NC(=O)C(C#N)=NOC

>  <LC retention time / min>
8.63

$$$$
>  <Compound>
CCOP(=S)(NC(C)C)Oc1ccccc1C(=O)OC(C)C (stereo not drawn)

>  <LC retention time / min>
7.91

$$$$
>  <Compound>
CNC(=O)Oc1cc(C)c(S(C)(=O)=O)c(C)c1

>  <LC retention time / min>
6.96

$$$$
>  <Compound>
COP(=S)(OC)Oc1ccc(SC)c(C)c1

>  <LC retention time / min>
10.2

$$$$
>  <Compound>
CCOc1cc(OP(=S)(OC)OC)nc(CC)n1

>  <LC retention time / min>
10.2

$$$$
>  <Compound>
CC1=CC2OC3C(O)CC(C)(C34CO4)C2(CO)C(O)C1=O (stereo not drawn)

>  <LC retention time / min>
9.63

$$$$
>  <Compound>
COP(=S)(OC)SCC(=O)N(C)C=O

>  <LC retention time / min>
8.06

$$$$
>  <Compound>
C=CCC1=C(C)C(OC(=O)C2C(C=C(C)C)C2(C)C)CC1=O (stereo not drawn)

>  <LC retention time / min>
10.8

$$$$
>  <Compound>
Cc1cc(=O)[nH]o1

>  <LC retention time / min>
5.67

$$$$
>  <Compound>
CC(C)C1(C)N=C(c2ncccc2C(=O)O)NC1=O (stereo not drawn)

>  <LC retention time / min>
6.79

$$$$
>  <Compound>
CNC(=O)Oc1cccc(N=CN(C)C)c1

>  <LC retention time / min>
7.91

$$$$
>  <Compound>
CCOC(=O)CC(SP(=S)(OC)OC)C(=O)OCC (stereo not drawn)

>  <LC retention time / min>
9.59

$$$$
>  <Compound>
CC(Cc1ccc(C(C)(C)C)cc1)CN1CCCCC1 (stereo not drawn)

>  <LC retention time / min>
9.29

$$$$
>  <Compound>
CCCC(=NOCC)C1=C(O)CC(CC(C)SCC)CC1=O (stereo not drawn)

>  <LC retention time / min>
10.7

$$$$
>  <Compound>
CCSCCSP(=S)(OC)OC

>  <LC retention time / min>
8.94

$$$$
>  <Compound>
c1ccc2[nH]c(-c3cscn3)nc2c1

>  <LC retention time / min>
6.96

$$$$
>  <Compound>
CCS(=O)(=O)c1cccnc1S(=O)(=O)NC(=O)Nc1nc(OC)cc(OC)n1

>  <LC retention time / min>
8.71

$$$$
>  <Compound>
COP(=S)(OC)SCn1nnc2ccccc2c1=O

>  <LC retention time / min>
9.38

$$$$
>  <Compound>
COC(=O)c1sccc1S(=O)(=O)NC(=O)Nc1nc(C)nc(OC)n1

>  <LC retention time / min>
8.32

$$$$
>  <Compound>
COc1nn(CSP(=S)(OC)OC)c(=O)s1

>  <LC retention time / min>
9.26

$$$$
>  <Compound>
CN(C)c1nc(=O)n(C2CCCCC2)c(=O)n1C

>  <LC retention time / min>
8.61

$$$$
>  <Compound>
CCS(=O)Cc1ccccc1OC(=O)NC (stereo not drawn)

>  <LC retention time / min>
7.09

$$$$
>  <Compound>
CNC(=O)Oc1ccccc1OC(C)C

>  <LC retention time / min>
8.36

$$$$
>  <Compound>
CCSC(=O)N(CC)C1CCCCC1

>  <LC retention time / min>
10.6

$$$$
>  <Compound>
CNC(=O)ON=C(SC)C(=O)N(C)C

>  <LC retention time / min>
5.75

$$$$
>  <Compound>
CCOP(=S)(OCC)SCSC(C)(C)C

>  <LC retention time / min>
7.2

$$$$
>  <Compound>
CCOP(=S)(OCC)OP(=S)(OCC)OCC

>  <LC retention time / min>
10.1

$$$$
>  <Compound>
CCCN(CCC)C(=O)SCc1ccccc1

>  <LC retention time / min>
10.6

$$$$
>  <Compound>
CCCN(CCC)C(=O)SCC

>  <LC retention time / min>
10.1

$$$$
>  <Compound>
CCOP(=O)(SC(C)CC)SC(C)CC (stereo not drawn)

>  <LC retention time / min>
10.5

$$$$
>  <Compound>
CNC(=O)ON=CC(C)(C)SC

>  <LC retention time / min>
7.89

$$$$
>  <Compound>
CCS(=O)CCSP(=O)(OC)OC (stereo not drawn)

>  <LC retention time / min>
6.04

$$$$
>  <Compound>
CCCCOC(=O)N(C)SN(C)C(=O)Oc1cccc2c1OC(C)(C)C2

>  <LC retention time / min>
10.6

$$$$
>  <Compound>
CCOC(=O)N(C)C(=O)CSP(=S)(OCC)OCC

>  <LC retention time / min>
9.84

$$$$
>  <Compound>
C=CC=CCC1=C(C)C(OC(=O)C2C(C=C(C)C)C2(C)C)CC1=O (stereo not drawn)

>  <LC retention time / min>
11

$$$$
>  <Compound>
CCOP(=S)(OCC)SCSCC

>  <LC retention time / min>
8.44

$$$$
>  <Compound>
CC1CCCC(=O)CCCC=Cc2cc(O)cc(O)c2C(=O)O1 (stereo not drawn)

>  <LC retention time / min>
9.87

$$$$
>  <Compound>
CC(C)=CC1C(C(=O)OCN2C(=O)C3=C(CCCC3)C2=O)C1(C)C (stereo not drawn)

>  <LC retention time / min>
10.7

$$$$
>  <Compound>
COc1cc2c(c3oc(=O)c4c(c13)CCOC4=O)C1CCOC1O2 (stereo not drawn)

>  <LC retention time / min>
7.8

$$$$
>  <Compound>
CCCCOCCOCCOCc1cc2c(cc1CCC)OCO2

>  <LC retention time / min>
10.8

$$$$
>  <Compound>
CNC(=O)Oc1cccc2c1OC(C)(C)C2

>  <LC retention time / min>
8.41

$$$$
>  <Compound>
COCCOc1ccccc1S(=O)(=O)NC(=O)Nc1nc(OC)nc(OC)n1

>  <LC retention time / min>
8.14

$$$$
>  <Compound>
CNC(=O)Oc1cc(C)c(S(C)=O)c(C)c1 (stereo not drawn)

>  <LC retention time / min>
7.09

$$$$
>  <Compound>
Cc1ccc(N=CN(C)C=Nc2ccc(C)cc2C)c(C)c1

>  <LC retention time / min>
9.09

$$$$
>  <Compound>
CCCC(=NOCC)C1=C(O)CC(C2CCCSC2)CC1=O (stereo not drawn)

>  <LC retention time / min>
10.5

$$$$
>  <Compound>
CCCOC(=O)NCCCN(C)C

>  <LC retention time / min>
5.17

$$$$
